What inhibition was measured for each of the following?
Target: Serine/threonine-protein kinase PAK 1 (Homo sapiens) (UniProt Q13153);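 also: values are mean PAK1 inhibition from the GSK PKIS kinase inhibitor set screen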
Sequence (Q13153 whole entry): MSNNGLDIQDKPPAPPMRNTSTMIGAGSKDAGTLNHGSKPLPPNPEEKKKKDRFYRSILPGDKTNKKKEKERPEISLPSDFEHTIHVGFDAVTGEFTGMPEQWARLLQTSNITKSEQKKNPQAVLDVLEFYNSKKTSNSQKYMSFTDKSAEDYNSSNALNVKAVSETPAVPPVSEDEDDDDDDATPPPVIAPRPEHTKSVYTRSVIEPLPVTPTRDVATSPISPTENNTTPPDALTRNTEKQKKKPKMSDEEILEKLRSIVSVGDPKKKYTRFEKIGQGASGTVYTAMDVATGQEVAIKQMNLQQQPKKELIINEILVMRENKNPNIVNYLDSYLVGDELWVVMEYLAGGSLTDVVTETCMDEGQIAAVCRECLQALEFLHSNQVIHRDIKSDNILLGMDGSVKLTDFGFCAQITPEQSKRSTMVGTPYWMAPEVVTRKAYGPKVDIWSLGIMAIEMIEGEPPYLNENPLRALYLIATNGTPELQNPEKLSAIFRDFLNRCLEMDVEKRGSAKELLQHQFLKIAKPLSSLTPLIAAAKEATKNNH
Settings: at 0.1 µM
Reply numerically in %, unit not repeated.

## Task Please look up its inhibition: O=C(Nc1n[nH]c2nc(-c3ccco3)c(Br)cc12)C1CC1
## Result 4.84

## Task Would you mind doing NS(=O)(=O)c1ccc(N/N=C2\C(=O)Nc3ccc(C(=O)NCCc4c[nH]cn4)cc32)cc1 as well?
## Result 3.1

## Task Repeat for the following compound: COc1cc2ncn(-c3cc(O[C@H](C)c4ccccc4Cl)c(C(N)=O)s3)c2cc1OC
## Result 6.45

## Task Okay, and [O-][S+]1CCN(Cc2ccc(-c3ccc4ncnc(Nc5ccc(OCc6ccccc6)c(F)c5)c4c3)o2)CC1 ?
## Result 1.29

## Task Now consider CCn1c(-c2nonc2N)nc2cncc(C(=O)N3CC[C@H](N)C3)c21 and answer again.
## Result 10.1

## Task Same for COc1ccc(COc2ccc(Cc3cnc(N)nc3N)cc2OC)cc1
## Result 1.82

## Task Same question, CC1=C(C(=O)Nc2ccc3[nH]ncc3c2)C(c2ccc(Cl)c(Cl)c2)CC(=O)N1 (stereo not given) this time
## Result 2.74

## Task Also need O=C1NC(=O)C(c2ccccc2Cl)=C1Nc1cccc(O)c1 , thanks.
## Result 3.51

## Task Item: Cc1ccc(NC(=O)c2ccnc(N3CCCC3)c2)cc1-c1ccc(C(=O)NCC2CC2)cc1
## Result 5.46

## Task Again, but for Nc1ncnc2occ(-c3ccc(NC(=O)Nc4cccc(C(F)(F)F)c4)cc3)c12
## Result 6.38

---

Please provide measured inhibition for the entries that follow.
Biological target: Phosphatidylinositol 4,5-bisphosphate 3-kinase catalytic subunit alpha isoform (Homo sapiens) (UniProt P42336);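 also: values are mean inhibition figures from the GSK PKIS kinase panel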
Sequence (P42336 whole entry, canonical isoform): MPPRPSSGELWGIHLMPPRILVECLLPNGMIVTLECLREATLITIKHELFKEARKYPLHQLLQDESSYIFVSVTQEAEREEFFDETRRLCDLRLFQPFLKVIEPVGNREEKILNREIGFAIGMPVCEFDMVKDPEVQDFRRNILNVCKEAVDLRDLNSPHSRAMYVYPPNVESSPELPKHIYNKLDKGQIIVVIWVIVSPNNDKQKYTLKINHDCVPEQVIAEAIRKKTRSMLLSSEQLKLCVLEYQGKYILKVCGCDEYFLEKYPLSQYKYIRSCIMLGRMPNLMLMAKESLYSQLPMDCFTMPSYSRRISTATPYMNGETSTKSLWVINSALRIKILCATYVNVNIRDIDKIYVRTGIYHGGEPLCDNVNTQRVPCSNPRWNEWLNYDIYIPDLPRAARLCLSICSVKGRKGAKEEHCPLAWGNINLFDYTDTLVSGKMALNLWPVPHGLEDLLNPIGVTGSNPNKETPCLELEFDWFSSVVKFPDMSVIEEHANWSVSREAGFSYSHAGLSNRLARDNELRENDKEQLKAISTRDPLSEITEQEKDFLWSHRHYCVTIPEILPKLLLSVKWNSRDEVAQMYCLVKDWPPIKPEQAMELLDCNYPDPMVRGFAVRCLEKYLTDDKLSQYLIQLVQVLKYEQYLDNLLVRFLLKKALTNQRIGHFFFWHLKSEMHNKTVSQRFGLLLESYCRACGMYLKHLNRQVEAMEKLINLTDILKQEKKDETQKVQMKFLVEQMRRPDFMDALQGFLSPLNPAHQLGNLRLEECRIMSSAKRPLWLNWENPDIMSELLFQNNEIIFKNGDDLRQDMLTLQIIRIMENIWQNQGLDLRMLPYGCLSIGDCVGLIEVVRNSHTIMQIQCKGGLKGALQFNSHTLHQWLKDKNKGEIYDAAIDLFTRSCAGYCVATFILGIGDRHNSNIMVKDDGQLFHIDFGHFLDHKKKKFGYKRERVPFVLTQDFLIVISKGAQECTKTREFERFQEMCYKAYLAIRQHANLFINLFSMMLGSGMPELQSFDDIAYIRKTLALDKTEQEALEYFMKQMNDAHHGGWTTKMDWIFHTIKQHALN
Settings: at 0.1 µM
Quick note: give the figure in %, leave out the unit.

## Task inhibition for COc1ccccc1Nc1ncc(-c2ccccc2)o1 ?
## Result 5.32

## Task CN(C)c1cc2c(Nc3ccc4nc(Cc5ccccc5)[nH]c4c3)ncnc2cn1 ?
## Result 7

## Task Record: COc1ccc(-c2ccncc2)cc1C(N)=O
## Result 5.07

## Task Another compound to look at: CC1=C(C(=O)Nc2ccc3[nH]ncc3c2)C(c2ccc(Cl)c(Cl)c2)CC(=O)N1 (stereo unspecified)
## Result -0.33

## Task COc1ccc2cc(-c3c(-c4ccncc4)nc(-c4ccc([S+](C)[O-])cc4)n3C)ccc2c1 (stereo unspecified) ?
## Result 2.81

## Task Input Cc1nn(C)c2cc(N(C)c3ccnc(Nc4cccc(S(N)(=O)=O)c4)n3)ccc12
## Result 6.6

## Task And NC(=O)c1cccc(Nc2nccc(Nc3cccc4[nH]ncc34)n2)c1 ?
## Result -1.08

## Task Cn1cc(C=C2C(=O)Nc3cccnc32)c2ccccc21 ?
## Result 2.82

## Task Can you handle CCn1c(-c2nonc2N)nc2c(N3CCCC3)nccc21 next?
## Result -1.75

## Task Repeat for the following compound: O=C1Nc2ccc(C(=O)c3ccco3)cc2C1=Cc1cc(Cl)c(O)c(Cl)c1
## Result 21.6

## Task Next record, please: O=C1NC(=O)C(c2ccc(Cl)cc2)=C1Nc1ccc(Cl)c(C(=O)O)c1
## Result 1.09

## Task Follow-up entry: Nc1nc(-c2ccc3c(c2)C(=Cc2cc(Br)c(O)c(Br)c2)C(=O)N3)cs1
## Result 0.41

## Task Param item: N#Cc1c(NC(=O)c2cccc3ccccc23)sc2c1CCCC2
## Result 1.58

## Task Next compound up: CCn1c(-c2nonc2N)nc2cncc(C(=O)N3CC[C@H](N)C3)c21
## Result 5.37

## Task Next compound: Nc1ncnc2occ(-c3ccc(NC(=O)Nc4cc(C(F)(F)F)cc(C(F)(F)F)c4)cc3)c12
## Result 0.61

## Task Also, NS(=O)(=O)c1ccc(N/N=C2\C(=O)Nc3ccc(C(=O)NCCc4c[nH]cn4)cc32)cc1 please.
## Result 2.2

## Task CC1=C(C(=O)Nc2ccc3[nH]ncc3c2)C(c2ccc(F)cc2)NC(=O)N1 (stereo unspecified) ?
## Result 2.51

## Task Another compound to look at: CCn1c(-c2nonc2N)nc2ccncc21
## Result 0.03

## Task Also, CS(=O)(=O)CCN(CC#N)Cc1ccc(-c2ccc3ncnc(Nc4ccc(OCc5cccc(F)c5)c(Cl)c4)c3c2)o1 please.
## Result 2.09

## Task // same read-out, input: CS(=O)(=O)CCNCc1ccc(-c2ccc3ncnc(Nc4ccc(OCc5ccccc5)c(Cl)c4)c3c2)o1
## Result -1.12

## Task What do we get for CN1CCC(C(=O)Nc2n[nH]c3nnc(-c4ccccc4)cc23)CC1 ?
## Result 4.88

---

Target: Serine/threonine-protein kinase Sgk3 (Homo sapiens) (UniProt Q96BR1);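 also: reported percentages are averaged inhibition values against SGK3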
Sequence (Q96BR1 whole entry): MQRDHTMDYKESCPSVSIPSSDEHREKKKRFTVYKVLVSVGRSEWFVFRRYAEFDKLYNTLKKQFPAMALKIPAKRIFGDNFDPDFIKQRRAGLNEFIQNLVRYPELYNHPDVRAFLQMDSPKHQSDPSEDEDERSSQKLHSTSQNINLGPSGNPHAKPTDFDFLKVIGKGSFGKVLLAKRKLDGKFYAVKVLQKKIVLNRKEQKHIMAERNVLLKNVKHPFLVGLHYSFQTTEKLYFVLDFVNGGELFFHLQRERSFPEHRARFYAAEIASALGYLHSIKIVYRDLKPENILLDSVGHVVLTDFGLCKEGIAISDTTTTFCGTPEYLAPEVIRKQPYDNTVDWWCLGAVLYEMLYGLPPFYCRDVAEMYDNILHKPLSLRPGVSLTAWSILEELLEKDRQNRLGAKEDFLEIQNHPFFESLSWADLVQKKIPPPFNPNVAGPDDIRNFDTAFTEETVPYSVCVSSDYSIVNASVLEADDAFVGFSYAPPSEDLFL
Conditions: at 0.1 µM
measured.metric: inhibition (%)
Report as a plain number; the unit % is understood.

## Task // returns reported inhibition for input COc1cc(C)c(NC(=O)CN(C)C)cc1Nc1nc(Nc2cccc(F)c2C(N)=O)c2cc[nH]c2n1
## Result 0.69

## Task Item: COc1cc2ncn(-c3cc(OCc4ccccc4C(F)(F)F)c(C(N)=O)s3)c2cc1OC
## Result 3.87

## Task Cc1cccc(-c2n[nH]cc2-c2ccc3ncccc3n2)n1 ?
## Result 0.78

## Task Lookup CCn1c(-c2nonc2N)nc2cncc(C(=O)N3CCNCC3)c21
## Result 5.25

## Task Next compound up: COC(=O)Nc1nc2cc(Oc3ccc(NC(=O)Nc4cccc(C(=O)O)c4)cc3)ccc2[nH]1
## Result -2.29

## Task Can you check COc1cc(C=NNc2ncnc3c2cnn3-c2ccccc2)ccc1O next?
## Result 1.97

## Task Now the compound Nc1nc(-c2ccc3c(c2)C(=Cc2cc(Br)c(O)c(Br)c2)C(=O)N3)cs1
## Result -0.67

## Task Now consider NS(=O)(=O)c1cccc(-c2ccc3c(NC(=O)C4CC4)n[nH]c3c2)c1 and answer again.
## Result 0.09

## Task Try this compound too: Fc1cccc(COc2ccc(Nc3ncnc4sc(-c5cccs5)cc34)cc2Cl)c1
## Result 0.04

## Task Another compound: O=C1NC(=O)C(c2cccc(Cl)c2)=C1Nc1ccc(O)c(Cl)c1
## Result -0.12

## Task Similarly, Cc1nn(C)c2cc(N(C)c3ccnc(Nc4cccc(S(N)(=O)=O)c4)n3)ccc12 ?
## Result 3.28

## Task For Cc1ccc(NC(=O)c2ccnc(N3CCCC3)c2)cc1-c1ccc(C(=O)NCC2CC2)cc1 then?
## Result 1.32

## Task For COc1cc2ncn(-c3cc(OCc4ccccc4Cl)c(C(N)=O)s3)c2cc1OC then?
## Result 2.12

## Task Another compound: NC(=O)c1cccc(Nc2nccc(Nc3cccc4[nH]ncc34)n2)c1
## Result -4.06

## Task Same for CCn1c(-c2nonc2N)nc2cncc(C(=O)N3CC[C@H](N)C3)c21
## Result 19.6

## Task Please answer likewise for NCc1ccc(-c2nc(-c3ccc(Cl)c(O)c3)c(-c3ccncc3)[nH]2)cc1
## Result -0.56

## Task For COc1ccc(-c2ccncc2)cc1C(N)=O then?
## Result 2.05

## Task Then CS(=O)(=O)CCN(CC#N)Cc1ccc(-c2ccc3ncnc(Nc4ccc(OCc5cccc(F)c5)c(Cl)c4)c3c2)o1 ?
## Result 0.78

## Task NC(=O)c1ccc(-c2nc(-c3ccccn3)c(-c3ccc4c(c3)OCO4)[nH]2)cc1 ?
## Result 1.19

## Task Note, next up: N#Cc1c(NC(=O)c2cccc3ccccc23)sc2c1CCCC2
## Result 1.65

## Task And Cc1ccc(C(=O)NC2CCCCC2)cc1-c1ccc(C(=O)NCC2CC2)cc1 ?
## Result 2.99

## Task And for CS(=O)(=O)CCNCc1ccc(-c2ccc3ncnc(Nc4ccc(OCc5cccc(F)c5)c(C(F)(F)F)c4)c3c2)o1 ?
## Result 3.28

## Task Try Cc1nnc(-c2ccc(C)c(-c3ccc(C(=O)Nc4cccc(C#N)c4)cc3)c2)o1 next.
## Result 1.01

## Task And CC1=C(C(=O)Nc2ccc3[nH]ncc3c2)C(c2ccc(Cl)c(Cl)c2)CC(=O)N1 (stereo unspecified) ?
## Result 1.38

## Task Please give the result for Fc1cccc(COc2ccc(Nc3ncnc4cc(-c5ccc[nH]5)sc34)cc2Cl)c1 too.
## Result 0.1

## Task Try this compound too: CC(=O)Nc1cccc(C#Cc2cncnc2Nc2ccc(OCc3cccc(F)c3)c(Cl)c2)n1
## Result 2.07

## Task Another: Nc1nc(-c2ccccn2)c(-c2ccc3ncccc3n2)s1
## Result 2.89

## Task Then what about the compound COc1ccc(-c2nn3ncccc3c2-c2ccnc(Nc3ccc(Cl)c(C(F)(F)F)c3)n2)cc1 ?
## Result 2.3

## Task Next compound: CCn1c(-c2nonc2N)nc2cnc(Oc3cccc(NC(=O)c4ccc(OCCN5CCOCC5)cc4)c3)cc21
## Result 36.3

## Task Another: COc1cc2ncn(-c3cc(O[C@@H](C)c4ccccc4Cl)c(C(N)=O)s3)c2cc1OC
## Result 4.22

## Task # repeat for CCn1c(-c2nonc2N)nc2ccncc21
## Result 0.78

Reference for the values: ChEMBL document CHEMBL1961873
